Value source: patent US10870638B2

Provide the reported Growth inhibition rate (%) Rice of each item.
Test system: rice (Oryza sativa L.)
test: Test Example 1: foliar treatment, growth inhibition rate on 14th day
Format: in vivo
condition: active ingredient amount 31 g/ha, 14th day after application, visual, 0 = non-treated, 100 = complete kill
Reply numerically in %, unit not repeated.

Report Growth inhibition rate (%) Rice for C=CCOC(=O)Oc1c(C)nn(C)c(=O)c1-c1cc(Oc2cnc3cc(Cl)ccc3n2)ccc1C [Compound 3-58] please.
50

Report Growth inhibition rate (%) Rice for CCn1nc(C)c(O)c(-c2cc(Oc3cnc4cc(Cl)ccc4n3)ccc2C)c1=O [Compound 3-96] please.
95

Report Growth inhibition rate (%) Rice for CCCSC(=O)Oc1c(C)nn(C)c(=O)c1-c1cc(Oc2cnc3cc(Cl)ccc3n2)ccc1C [Compound 3-56] please.
0

Report Growth inhibition rate (%) Rice for C=CC(=O)Oc1c(C)nn(C)c(=O)c1-c1cc(Oc2cnc3cc(Cl)ccc3n2)ccc1C [Compound 3-49] please.
50

###

Tested on: corn (Zea mays L.)
test: Test Example 1: foliar treatment, growth inhibition rate on 14th day
Assay type: in vivo
condition: active ingredient amount 31 g/ha, 14th day after application
Use 90% as the dividing line for Growth inhibition rate (%) Corn, with the line itself on the Satisfied side and lower values as Not satisfied.

Exam item: decide whether the reported Growth inhibition rate (%) Corn for COc1ccc(Oc2ncc(C(F)(F)F)cc2Cl)cc1-c1c(O)c(C)nn(C)c1=O is at least 90%.
Not satisfied

Exam item: decide whether the reported Growth inhibition rate (%) Corn for CC(=O)Oc1cnn(C(C)C)c(=O)c1-c1cc(Oc2nc3ccc(Cl)cc3o2)ccc1C is at least 90%.
Satisfied

Exam item: decide whether the reported Growth inhibition rate (%) Corn for CC(=O)Oc1c(C)nn(C)c(=O)c1-c1cc(Oc2ncc(C(F)(F)F)cc2F)ccc1C is at least 90%.
Satisfied

Exam item: decide whether the reported Growth inhibition rate (%) Corn for Cc1ccc(Oc2nc3ccc(Br)cc3s2)cc1-c1c(O)c(C)nn(C)c1=O is at least 90%.
Not satisfied

Exam item: decide whether the reported Growth inhibition rate (%) Corn for Cc1ccc(Oc2ncc(Br)cc2Cl)cc1-c1c(O)c(C)nn(C)c1=O is at least 90%.
Not satisfied

Exam item: decide whether the reported Growth inhibition rate (%) Corn for CC(=O)Oc1c(C)nn(C)c(=O)c1-c1cc(Nc2ncc(C(F)(F)F)cc2Cl)ccc1C is at least 90%.
Not satisfied

Exam item: decide whether the reported Growth inhibition rate (%) Corn for Cc1nn(C)c(=O)c(-c2cc(Oc3ncc(C(F)(F)F)cc3Cl)ccc2C2CC2)c1O is at least 90%.
Not satisfied

Exam item: decide whether the reported Growth inhibition rate (%) Corn for CCc1ccc(Sc2ncc(C(F)(F)F)cc2Cl)cc1-c1c(O)c(C)nn(C)c1=O is at least 90%.
Satisfied

Exam item: decide whether the reported Growth inhibition rate (%) Corn for CCc1nn(C)c(=O)c(-c2cc(Oc3ncc(C(F)(F)F)cc3Cl)ccc2C)c1OC(C)=O is at least 90%.
Satisfied

Exam item: decide whether the reported Growth inhibition rate (%) Corn for CC(=O)Oc1c(C)nn(C)c(=O)c1-c1cc(Oc2nc3ccc(Br)cc3s2)ccc1C is at least 90%.
Not satisfied

Exam item: decide whether the reported Growth inhibition rate (%) Corn for Cc1ccc(Oc2nc3cc(Cl)ccc3o2)cc1-c1c(O)cnn(C)c1=O is at least 90%.
Not satisfied

Exam item: decide whether the reported Growth inhibition rate (%) Corn for Cc1cc(C)c(-c2c(O)c(C)nn(C)c2=O)cc1Oc1ncc(C(F)(F)F)cc1Cl is at least 90%.
Not satisfied

Exam item: decide whether the reported Growth inhibition rate (%) Corn for CC(=O)Oc1c(C)nn(C)c(=O)c1-c1cc(Oc2nc3ccc(Cl)cc3s2)ccc1C is at least 90%.
Not satisfied

Exam item: decide whether the reported Growth inhibition rate (%) Corn for CCc1ccc(Oc2ncc(C(F)(F)F)cc2Cl)cc1-c1c(OC(C)=O)cnn(CC)c1=O is at least 90%.
Satisfied

Exam item: decide whether the reported Growth inhibition rate (%) Corn for CCc1ccc(Oc2ncc(C(F)(F)F)cc2Cl)cc1-c1c(OC(C)=O)c(C)nn(C)c1=O is at least 90%.
Satisfied

Exam item: decide whether the reported Growth inhibition rate (%) Corn for Cc1ccc(Oc2nc3ccc(Cl)cc3o2)cc1-c1c(O)c(C)nn(C)c1=O is at least 90%.
Not satisfied

Exam item: decide whether the reported Growth inhibition rate (%) Corn for CCc1nn(C)c(=O)c(-c2cc(Oc3ncc(C(F)(F)F)cc3Cl)ccc2C)c1O is at least 90%.
Not satisfied

Exam item: decide whether the reported Growth inhibition rate (%) Corn for Cc1ccc(Oc2nc3cc(Cl)ccc3o2)cc1-c1c(O)c(C)nn(C)c1=O is at least 90%.
Not satisfied

Exam item: decide whether the reported Growth inhibition rate (%) Corn for Cc1ccc(Oc2ncc(C(F)(F)F)cc2Cl)cc1-c1c(OC(=O)OC(C)(C)C)c(C)nn(C)c1=O is at least 90%.
Satisfied

Exam item: decide whether the reported Growth inhibition rate (%) Corn for CCOC(=O)Oc1c(C)nn(C)c(=O)c1-c1cc(Oc2ncc(C(F)(F)F)cc2Cl)ccc1C is at least 90%.
Satisfied

Exam item: decide whether the reported Growth inhibition rate (%) Corn for Cn1ncc(O)c(-c2cc(Oc3ncc(C(F)(F)F)cc3Cl)ccc2OC(F)(F)F)c1=O is at least 90%.
Satisfied

Exam item: decide whether the reported Growth inhibition rate (%) Corn for C=CCn1ncc(O)c(-c2cc(Oc3ncc(C(F)(F)F)cc3Cl)ccc2C)c1=O is at least 90%.
Satisfied

Exam item: decide whether the reported Growth inhibition rate (%) Corn for Cc1ccc(Oc2cnc3cc(Cl)ccc3n2)cc1-c1c(OC(=O)C(C)(C)C)c(C)nn(C)c1=O is at least 90%.
Not satisfied

Exam item: decide whether the reported Growth inhibition rate (%) Corn for CC(=O)Oc1c(C)nn(C)c(=O)c1-c1cc(Oc2nc3ccc(C(F)(F)F)nc3o2)ccc1C is at least 90%.
Not satisfied

Exam item: decide whether the reported Growth inhibition rate (%) Corn for Cc1ccc(Oc2ncc(C(F)(F)F)cc2Br)cc1-c1c(O)c(C)nn(C)c1=O is at least 90%.
Not satisfied

Exam item: decide whether the reported Growth inhibition rate (%) Corn for CC(=O)Oc1c(C)nn(C)c(=O)c1-c1cc(Oc2ncc(C#N)cc2Cl)ccc1C is at least 90%.
Not satisfied

Exam item: decide whether the reported Growth inhibition rate (%) Corn for Cc1ccc(Oc2cnc3cc(Cl)ccc3n2)cc1-c1c(OC(=O)c2ccccc2)c(C)nn(C)c1=O is at least 90%.
Not satisfied

Exam item: decide whether the reported Growth inhibition rate (%) Corn for Cc1ccc(Oc2cnc3cc(Cl)ccc3n2)cc1-c1c(OC(=O)c2cn(C)nc2C)c(C)nn(C)c1=O is at least 90%.
Not satisfied

Exam item: decide whether the reported Growth inhibition rate (%) Corn for CC(=O)Oc1c(C)nn(C)c(=O)c1-c1cc(Oc2ncc3cc(Br)ccc3n2)ccc1C is at least 90%.
Not satisfied

Exam item: decide whether the reported Growth inhibition rate (%) Corn for CC(=O)Oc1c(C)nn(C)c(=O)c1-c1cc(Oc2ncc(C(F)(F)F)cc2C(F)(F)F)ccc1C is at least 90%.
Satisfied

Exam item: decide whether the reported Growth inhibition rate (%) Corn for CCc1ccc(Oc2ncc(C(F)(F)F)cc2Cl)cc1-c1c(O)c(C)nn(C)c1=O is at least 90%.
Satisfied
